testedOn: T1, Human IGF-1R (HIGF-1R), purified from BHK cells stably transfected with IGF-1R cDNA (human, UniProt P08069 31-1367)
T1 construct: mature; Detergent-solubilised whole receptor, not on cells; form 'mature' is my reading of 'purified from ... cells stably transfected with IGF-1R cDNA'; also called human insulin-like growth factor-1 receptor; purified HIGF-1R
experimentSummary: competition with 125I-IGF-1 on purified HIGF-1R (PEG or SPA assay; the sentence does not say which)
Reported Kd values follow for various binders

# binder, Kd / µM
data = [
    ("FVQDDCRGRPCGDADSFYEWFDQQAGYGSSSRRAPQT [F364]", 0.05),
    ("SFYSCLESLVQGPAEKSRGQWEGCRK [F293]", 0.09),
]
